Where do the numbers come from? From ChEMBL document CHEMBL3507680.

Experiment Notes: Human HepG2 cell viability assay in 384 well format
Type: toxicity, cell-based
Set-up: dose 125 nL, time 70.5 hour; concentration not given beside the values
Measurement Setup: HepG2 cells, read-out: Inhibition
Task for the reader: assign each of the following molecules its reported cytotoxicity at 70.5 h.
Don't forget the unit after the value.

Name the recorded cytotoxicity at 70.5 h for `CCN1CCC2(CC1)C(=O)Nc1ccc(C(=O)NC)cc12` .
4.51%

And for `Clc1ccccc1C1(c2ccnc(CC3CC3)n2)CCNCC1` ?
4.53%

And for `CCOCc1nc2c(c(NCCNC(C)=O)n1)CCN(C(C)=O)CC2` ?
16.6%

And for Cc1nc(C)n(CC2CCCN(Cc3cn4c(C)cccc4n3)C2)n1 (centres undefined) ?
-11.6%
